assayed target: canine CD3 on canine T cells (canine PBMC) (canine, UniProt P27597 22-202)
Sequence (P27597 22-202 limits assumed, chain 1 of 3): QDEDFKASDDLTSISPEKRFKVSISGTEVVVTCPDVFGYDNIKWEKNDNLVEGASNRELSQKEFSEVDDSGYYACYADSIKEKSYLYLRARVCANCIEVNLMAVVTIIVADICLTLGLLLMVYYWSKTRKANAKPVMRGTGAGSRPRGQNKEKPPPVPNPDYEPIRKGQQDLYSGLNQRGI
Sequence (chain, as listed by the source limits assumed, chain 2 of 3): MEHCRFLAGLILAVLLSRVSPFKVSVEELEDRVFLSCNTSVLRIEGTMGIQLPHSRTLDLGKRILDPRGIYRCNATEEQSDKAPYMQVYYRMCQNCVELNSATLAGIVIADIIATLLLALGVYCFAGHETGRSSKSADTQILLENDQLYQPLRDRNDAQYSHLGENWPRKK
Sequence (chain, as listed by the source limits assumed, chain 3 of 3): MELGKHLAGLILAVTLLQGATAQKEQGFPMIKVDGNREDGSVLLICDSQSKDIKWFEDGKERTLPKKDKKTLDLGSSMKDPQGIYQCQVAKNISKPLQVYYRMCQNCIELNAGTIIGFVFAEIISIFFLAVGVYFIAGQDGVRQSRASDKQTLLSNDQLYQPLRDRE
assay info: cell-based or functional assay
readout kind: CD25 Activation, Day 9, IS
A bare number is all that is needed in reply.

Take a look at these entries with their results.
Tell us which CD25 Activation, Day 9, IS value is on record for PMX178 (monospecific anti-canine CD3, canine IgG-B effector function deficient Fc) (antibody, V domains shown) VH: ELALQESGPGLVRPSQTLSLTCVVSGGSVTRSYYWNWIRQRPGRGLEWMGYWTGTTIYNPAFQGRISITVDTAKNQFSLHLISMTTEDTAVYYCGREGGSSLGAIAYWGQGTRVTVSS VL: SYVLTQLPSKNVTLKQPAHITCGGDNIGRKSVHWYQQKLGQAPVLIIYYDSSRPTGIPERFSGANSGNTATLTISGALAEDEADYYCQVWDSSAKAAVFGGGTHLTVL
8.41

Tell us which CD25 Activation, Day 9, IS value is on record for PMX194 (monospecific anti-canine CD3, canine IgG-B effector function deficient Fc) (antibody, V domains shown) VH: EVQLVESGGDLVKPGGSLRLSCVASGFTFSNYHMSWVRQAPGKGLQWVAYSNSGRMSTDYADAVKGRFTISRDNAKNTLYLQMNSLRPEDTAVYYCATVIYGLFDYWGQGTLVTVSS VL: DIVMTQTPLSLSVSPGEPASISCKASQSLLYSNGNTYLYWFRQKPGQSPQRLIYKVSKRDSGVPDRFSGSGSGTDFTLRIRRVEADDAGVYYCGQGTQDPYTFSQGTKLEIK
7.96

Tell us which CD25 Activation, Day 9, IS value is on record for PMX180 (monospecific anti-canine CD3, canine IgG-B effector function deficient Fc) (antibody, V domains shown) VH: ELTLQESGPGLVKPSQTLSLTCVVSGGSVTSNYYWNWIRQRPGRGLEWMGYWTGSTNYNPAFQGRISITADTAKKQFSLQLRSMTIEDTAVYYCARRGIPIFFDYWGQGTLVTVSS VL: SYVLTQLPSKNVTLKQPAHITCGGDNIGSKSVHWYQQKLGQAPVLIIYYDSSRPTGIPERFSGANSGNTATLTISGALAEDEADYYCQVWDSSASVFGGGTHLTVL
13.9

# input for lookup
Tell us which CD25 Activation, Day 9, IS value is on record for PMX166 (monospecific anti-canine CD3, canine IgG-B effector function deficient Fc) (antibody, V domains shown) VH: ELTLQESGPGLVKPSQTLSLTCVVSGGSVTSSYFWNWIRQRPGRGLEWMGYWTGSTIYSPAFQGRISITPDTAKNQFSLQLSSMTTEDTAVYYCSREGGSTLGAFAYWGQGTLVTVSS VL: SYVLTQLPSKNVTLKQPAHITCGGDNIGSKSVHWYQQKLGQAPVLIIYYDSSRPTGIPERFSGANSGNTATLTISGALAEDEADYYCQVWDSSAKASVFGGGTHLTVL
9.15
